study_system: T1, recombinant human IL-13 (rh-IL-13)-Fc (human, UniProt P35225 35-146, limits assumed)
T1 construct: used for yeast surface display labelling; not shown: Fc (detected with anti human Fc)
T1 sequence (P35225 35-146 limits assumed): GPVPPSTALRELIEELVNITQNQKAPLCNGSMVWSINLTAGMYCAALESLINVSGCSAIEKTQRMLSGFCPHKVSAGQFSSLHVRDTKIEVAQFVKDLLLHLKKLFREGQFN
test_protocol: yeast surface display flow cytometry, 10 nM rh-IL-13-Fc; MFI normalized to expression and to the positive control

[
  {
    "binder": "C39 (scFv, V domains shown, also called C39-VH-L-VL) VH: QMQLVESGGGVVQPGRSLRLSCAASGFTFRTYGMHWVRQAPGKGLEWVAVIWYDGSNKHYADSVKGRFTITRDNSKNTLNLQMNSLRAEDTAVYYCARAPQWELTAEAFDLWGQGTMVTVSS VL: SYVLTQPPSVSVAPGQTARITCGGNLLGSKLVHWYQQKPGQAPVLVVYDDSDRPSWIPERFSGSNSGNTATLTISRVEAGDEADYYCQVWDTSSDHVVFGGGTKLTVL",
    "binding result": "binds"
  }
]
